B1: glmS ribozyme (parent)
chain: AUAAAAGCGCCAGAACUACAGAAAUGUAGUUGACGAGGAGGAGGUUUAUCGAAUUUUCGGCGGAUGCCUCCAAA

- Variants of: B1
- procedure details: self-cleavage kobs at 160 uM GlcN6P; higher = faster cleavage; RNA array
- run parameters: with glucosamine-6-phosphate
Fewer inactive variants are shown than the library holds.
measurement name: self-cleavage kobs at 160 uM GlcN6P

Example cases with answers are listed next.
variant_key="C34G C58U A64C C67G" observed="4.06e-05 s⁻¹"
variant_key="A12U G41A" observed="0.00038 s⁻¹"
variant_key="A6C A36G C50U C67U" observed="< 1e-05 s⁻¹"
variant_key="U31C C50G C70U" observed="7.9e-05 s⁻¹"
variant_key="C34A C58A" observed="< 1e-05 s⁻¹"

From here, focus on the item given below.
Record summary for C8A A36G : reported self-cleavage kobs at 160 uM GlcN6P = < 1e-05 s⁻¹
